Target: T1, cynomolgus soluble urokinase plasminogen activator receptor (suPAR) (cynomolgus, UniProt Q9GK78 23-303, limits assumed)
T1 construct: Column head says only 'cynomologus'; also called cynomolgus suPAR; cynomolgus uPAR
T1 sequence (Q9GK78 23-303 limits assumed): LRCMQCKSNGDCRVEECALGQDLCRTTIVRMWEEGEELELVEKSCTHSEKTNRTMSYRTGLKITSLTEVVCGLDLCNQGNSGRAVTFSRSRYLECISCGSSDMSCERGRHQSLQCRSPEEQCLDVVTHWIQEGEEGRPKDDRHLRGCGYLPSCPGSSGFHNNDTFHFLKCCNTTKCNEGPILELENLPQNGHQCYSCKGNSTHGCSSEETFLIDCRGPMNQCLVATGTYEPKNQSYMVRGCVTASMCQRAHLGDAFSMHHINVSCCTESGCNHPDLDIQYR
Experiment: BLI (Octet) off-rate screen of scFv clones
Listed binders paired with reported koff
The reply should be a number in s⁻¹, with the unit left off.

- BINDER: "suPAR_DB02_E08 (scFv, V domains shown, scFv clone from phage display) VH: QVQLVQSGAEVKKPGASVKVSCKASGYNIKSYYIHWVRQAPGQGLEWMGWIDHENGNTIYDQKFQGRVTMTRDTSTSTVYMELSSLRSEDTAVYYCAAGYDVDWFVYWGQGTLVTVSS VL: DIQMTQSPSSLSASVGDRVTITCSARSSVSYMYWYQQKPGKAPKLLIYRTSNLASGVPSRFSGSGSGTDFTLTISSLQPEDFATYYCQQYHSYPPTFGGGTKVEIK"
  OBS_VALUE: 0.000363
- BINDER: "suPAR_DB02_G05 (scFv, V domains shown, scFv clone from phage display) VH: QVQLVQSGAEVKKPGASVKVSCKASGYTFTGHYMHWVRQAPGQGLEWMGWIDPEGGNTIYAQKFQGRVTMTRDTSTSTVYMELSSLRSEDTAVYYCARGYDVDWFVYWGQGTLVTVSS VL: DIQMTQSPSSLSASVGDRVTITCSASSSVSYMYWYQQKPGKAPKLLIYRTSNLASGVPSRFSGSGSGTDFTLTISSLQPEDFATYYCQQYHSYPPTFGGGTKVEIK"
  OBS_VALUE: 0.000521
- BINDER: "suPAR_DB02_F07 (scFv, V domains shown, scFv clone from phage display) VH: QVQLVQSGAEVKKPGASVKVSCKASGYTFTGYYVHWVRQAPGQGLEWMGWIDPEGGNTIYDQKFQGRVTMTRDTSTSTVYMELSSLRSEDTAVYYCARGYDVDWFVYWGQGTLVTVSS VL: DIQMTQSPSSLSASVGDRVTITCRARQSVSYMYWYQQKPGKAPKLLIYRTSNLQSGVPSRFSGSGSGTDFTLTISSLQPEDFATYYCQQYHSYPPTFGGGTKVEIK"
  OBS_VALUE: 0.000384
- BINDER: "suPAR_DB02_E07 (scFv, V domains shown, scFv clone from phage display) VH: QVQLVQSGAEVKKPGASVKVSCKASGYNFNAYYMHWVRQAPGQGLEWMGWIDPHSGGTNYAQKFQGRVTMTRDTSTSTVYMELSSLRSEDTAVYYCARGYDVDWFVYWGQGTLVTVSS VL: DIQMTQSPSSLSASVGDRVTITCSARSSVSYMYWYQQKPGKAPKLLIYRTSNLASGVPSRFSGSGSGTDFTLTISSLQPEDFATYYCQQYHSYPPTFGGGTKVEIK"
  OBS_VALUE: 0.000177

Please turn your attention to the following entry.
q: What value of koff has been recorded for this entry: suPAR_DB02_F04 (scFv, V domains shown, scFv clone from phage display) VH: QVQLVQSGAEVKKPGASVKVSCKASGYTLTSYYVHWVRQAPGQGLEWMGWIDPKSGDTKYAHKFQGRVTMTRDTSTSTVYMELSSLRSEDTAVYYCARGYDVDWFVYWGQGTLVTVSS VL: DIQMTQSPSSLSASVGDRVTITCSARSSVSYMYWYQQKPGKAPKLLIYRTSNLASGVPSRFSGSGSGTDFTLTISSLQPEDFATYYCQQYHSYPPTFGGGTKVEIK
a: 0.000453
